- test_description: Acute toxicity per os in mice
- measurement_context: mouse, in vivo, po; P.O.; ethacrynic acid, given in the diuretic activity section; read-out: DL 50 P.O.
metric: LD50 (mg/kg)
Could you give me the number in mg/kg? Just the number is fine.

Give its LD50 value. Item: C=C(CC)C(=O)c1ccc(OCC(=O)O)c(Cl)c1Cl [ethacrynic acid, reference compound] 600

====

- test_description: Acute toxicity per os in mice
- measurement_context: mouse, in vivo, po; male mice (Swiss C.D), per os, mortality after 48 hours; read-out: LD 50 per os
I'd appreciate it if you could supply LD50 at 48 h values for the items below.
Kindly answer with a numeric value in mg/kg, unit omitted.

May I ask what LD50 at 48 h has been recorded for CCc1oc2ccccc2c1C(=O)c1cc(I)c(O)c(I)c1 [benziodarone, reference compound] ? 1400

Which LD50 at 48 h is listed for O=C(O)COc1ccc(C(O)c2cccs2)c(Cl)c1Cl (stereo not drawn) ? 1000
